These entries and their values trace back to patent US11319300B2.

- System: CEM-C1
- Method Notes: Tumour cell proliferation inhibition, MTT assay, CEM-C1
- Type: cell-based, human
- Test Context: 72 hours
pIC50: −log10 of the molar value.

# Compound, pIC50
data = [
    ("Cn1nccc1-c1ccc(C(=O)N[C@@H]2CNCC[C@H]2c2ccc(F)c(F)c2)c(F)c1 [VII-1a]", 7.00),
]

###

- Method Notes: Oral pharmacokinetic experiment in SD rats
- Type: in vivo
- Test Context: oral administration, 20 mg/kg, mean n = 3
Parameter: AUC0-t. Scope: all listed entries.

# Compound, AUC0-t
rows = [
    ("Cn1nccc1-c1ccc(C(=O)N[C@@H]2CNCC[C@H]2c2ccc(F)c(F)c2)c(F)c1.O=C(O)C(O)C(O)C(=O)O [VII-33]", "1950 ng·h/mL"),
    ("Cn1nccc1-c1ccc(C(=O)N[C@@H]2CNCC[C@H]2c2ccc(F)c(F)c2)c(F)c1.O=C(O)C[C@H](O)C(=O)O [VII-30]", "2350 ng·h/mL"),
    ("Cn1nccc1-c1ccc(C(=O)N[C@@H]2CNCC[C@H]2c2ccc(F)c(F)c2)c(F)c1 [VII-1a]", "1480 ng·h/mL"),
]

###

- Method Notes: Oral pharmacokinetic experiment in SD rats
- Type: in vivo
- Test Context: rat, in vivo, oral administration, 20 mg/kg, mean n = 3

# Substance Smiles, Cmax (ng/mL)
measured = [
    ("Cn1nccc1-c1ccc(C(=O)N[C@@H]2CNCC[C@H]2c2ccc(F)c(F)c2)c(F)c1.O=C(O)C(O)C(O)C(=O)O", 200),
    ("Cn1nccc1-c1ccc(C(=O)N[C@@H]2CNCC[C@H]2c2ccc(F)c(F)c2)c(F)c1.O=C(O)C[C@H](O)C(=O)O", 253),
]

###

- Assay Target: hERG potassium channel (Homo sapiens, UniProt Q12809)
- Construct: host or cells: CHO
- Sequence (Q12809 whole entry): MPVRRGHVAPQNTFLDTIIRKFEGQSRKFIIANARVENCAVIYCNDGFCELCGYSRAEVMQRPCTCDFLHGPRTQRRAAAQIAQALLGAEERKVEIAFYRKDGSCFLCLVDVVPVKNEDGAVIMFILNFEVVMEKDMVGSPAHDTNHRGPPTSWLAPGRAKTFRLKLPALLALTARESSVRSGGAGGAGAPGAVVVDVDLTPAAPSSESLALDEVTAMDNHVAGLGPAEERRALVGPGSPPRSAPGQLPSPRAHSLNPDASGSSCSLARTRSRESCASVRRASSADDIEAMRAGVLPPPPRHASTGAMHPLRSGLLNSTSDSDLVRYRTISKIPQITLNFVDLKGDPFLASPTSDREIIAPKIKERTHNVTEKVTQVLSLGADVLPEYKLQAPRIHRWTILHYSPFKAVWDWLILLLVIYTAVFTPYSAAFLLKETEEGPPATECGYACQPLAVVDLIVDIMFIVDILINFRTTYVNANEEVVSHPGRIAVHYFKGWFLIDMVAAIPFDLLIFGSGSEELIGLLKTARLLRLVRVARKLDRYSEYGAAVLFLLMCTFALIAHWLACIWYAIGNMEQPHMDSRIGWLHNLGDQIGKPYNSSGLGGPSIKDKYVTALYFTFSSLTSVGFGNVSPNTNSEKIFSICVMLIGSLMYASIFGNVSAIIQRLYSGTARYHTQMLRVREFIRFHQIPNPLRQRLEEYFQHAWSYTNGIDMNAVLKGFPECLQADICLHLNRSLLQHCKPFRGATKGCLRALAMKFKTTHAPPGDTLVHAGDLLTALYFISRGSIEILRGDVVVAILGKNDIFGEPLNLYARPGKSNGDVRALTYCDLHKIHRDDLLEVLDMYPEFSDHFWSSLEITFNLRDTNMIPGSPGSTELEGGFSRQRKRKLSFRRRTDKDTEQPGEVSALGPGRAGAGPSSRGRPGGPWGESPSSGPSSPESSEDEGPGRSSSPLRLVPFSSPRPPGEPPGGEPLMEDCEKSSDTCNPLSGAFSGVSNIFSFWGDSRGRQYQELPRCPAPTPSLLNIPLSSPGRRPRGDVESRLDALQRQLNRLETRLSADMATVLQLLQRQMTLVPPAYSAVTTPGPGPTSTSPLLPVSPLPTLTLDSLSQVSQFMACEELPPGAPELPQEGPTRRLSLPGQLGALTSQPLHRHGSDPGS
- Method Notes: hERG potassium channel inhibition, manual whole-cell patch clamp in CHO hERG cells
- Assay type: cell-based
- Test Context: 3 μM, CHO hERG cells, patch clamp
Short version: hERG (Inhibition rate at 3 μM concentration) at least 20% is satisfied, less is not satisfied.

# Compound, Class
measured = [
    ("Cn1nccc1-c1cc(F)c(C(=O)N[C@@H]2CNCC[C@H]2c2ccc(F)c(F)c2)cc1F [VII-18]", "not satisfied"),
    ("Cn1ncc(Cl)c1-c1cc(C(=O)N[C@H](CN)Cc2ccc(F)c(F)c2)oc1Cl [GSK2141795, reference compound]", "satisfied"),
    ("Cn1nccc1-c1ccc(C(=O)N[C@@H]2CNCC[C@H]2c2ccc(F)c(F)c2)c(F)c1 [VII-1a]", "not satisfied"),
    ("Cn1nccc1-c1ccc(C(=O)N[C@@H]2CNCC[C@H]2c2cc(F)c(F)c(F)c2)c(F)c1 [VII-8]", "not satisfied"),
    ("Cn1ncc(Cl)c1-c1cc(C(=O)N[C@H]2CNCC[C@@H]2c2ccc(F)c(F)c2)oc1Cl (racemic) [reference compound]", "satisfied"),
]

###

- Tested on: 786-O
- Method Notes: Tumour cell proliferation inhibition, MTT assay, 786-O
- Format: cell-based, human
- Test Context: 72 hours, citrate
Counter-ions that a name gives are not always drawn.

# Compound, Measurement Unit, IC50
rows = [
    ("Cn1nccc1-c1ccc(C(=O)N[C@@H]2CNCC[C@H]2c2ccc(F)c(F)c2)c(F)c1 [VII-37, citrate]", "nM", 670),
]
